Measured IC50 values are reported for all entries that follow.
molecular target: Beta-lactamase (Pseudomonas aeruginosa); assay: inhibition of IMP-1 beta-lactamase activity – biochemical, epi-absorbance, selectivity assay for VIM-2 inhibitor project, dose response (AID 1920)
Sequence (Q79MP6 whole entry): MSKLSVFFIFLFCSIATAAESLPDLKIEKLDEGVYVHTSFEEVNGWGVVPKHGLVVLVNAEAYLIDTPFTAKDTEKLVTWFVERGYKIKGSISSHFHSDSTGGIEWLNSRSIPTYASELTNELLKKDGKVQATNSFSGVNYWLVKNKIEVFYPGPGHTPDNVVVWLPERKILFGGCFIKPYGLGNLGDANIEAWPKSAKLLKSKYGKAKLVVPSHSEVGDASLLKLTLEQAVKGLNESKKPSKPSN
The source made the active and inactive calls. The rule behind the calls is not given here.
observationType: IC50

[[record]]
compound = "COc1cc(OC)c(OC)cc1/C=N/NC(=O)CC1C(=O)NN=C1C (centres undefined)"
recordedvalue = "> 59.6 µM (inactive)"

[[record]]
compound = "O=C(O)C(NC(=O)c1ccccc1)=C(Cl)Cl"
recordedvalue = "> 59.6 µM (inactive)"

[[record]]
compound = "O=C(O)c1cccc(NC(=S)N/N=C/c2ccccc2OCc2cccc(Br)c2)c1"
recordedvalue = "> 59.6 µM (inactive)"

[[record]]
compound = "S=c1[nH]nc(-c2ccco2)n1Cc1ccccc1"
recordedvalue = "> 59.6 µM (inactive)"


The measured values listed here are drawn from ChEMBL document CHEMBL1201862.
